# reported Lethality; entries follow
# Test system: Walker carcinosarcoma 256
# Procedure details: Walker carcinosarcoma 256 test
# Type: in vivo, Sprague Dawley rats
# Study conditions: 5×250 mg/kg i.p.; died/used animals
# From the text: The experimental design and the interpretation of the results have been in accordance with the standards set by the CCNSC (Cancer Chemotherapy Reports, January 1959 and December 1962), and by the DR&D (Cancer Chemotherapy Reports, September 1972, Vol. 3, No. 2). The way of administration is by the intraperitoneal route (i.p.) in each case. Walker carcinosarcoma 256 Experimental animals: Sprague Dawley rats. Tumour implant: Tumour pieces with 2-4 mm diameter, subcutaneously. […]

Example cases with answers are listed next.
Sample smiles	Target desc	Result
C[C@]12CC[C@H](OC(=O)N(CCCl)N=O)CC1=CC[C@@H]1[C@@H]2CC[C@]2(C)C(=O)CC[C@@H]12	Walker carcinosarcoma 256	0/16
C[C@]12CC[C@H]3[C@@H](CCC4=CC(=O)CC[C@@]43C)[C@@H]1CC[C@@H]2OC(=O)N(CCCl)N=O	Walker carcinosarcoma 256	0/8
CC(=O)Oc1ccc2c(c1)CC[C@@H]1[C@@H]2CC[C@]2(C)[C@@H](OC(=O)N(CCCl)N=O)CC[C@@H]12	Walker carcinosarcoma 256	1/8
COc1ccc2c(c1)CC[C@@H]1[C@@H]2CC[C@]2(C)[C@@H](OC(=O)N(CCCl)N=O)CC[C@@H]12	Walker carcinosarcoma 256	0/8
C[C@]12CCC(=O)C[C@@H]1CC[C@@H]1[C@@H]2CC[C@]2(C)[C@@H](OC(=O)N(CCCl)N=O)CC[C@@H]12	Walker carcinosarcoma 256	0/8

The compound C[C@]12CC[C@@H](OC(=O)N(CCCl)N=O)C[C@@H]1CC[C@@H]1[C@@H]2CC[C@]2(C)[C@@H](OC(=O)N(CCCl)N=O)CC[C@@H]12 showed Lethality equal to 1/8

Quick note, Lethality for C[C@]12CC[C@@H](OC(=O)N(CCCl)N=O)C[C@@H]1CC[C@@H]1[C@@H]2CC[C@]2(C)C(=O)CC[C@@H]12 landed at 0/8

Lethality reading for C[C@]12CC[C@H](OC(=O)N(CCBr)N=O)CC1=CC[C@@H]1[C@@H]2CC[C@]2(C)C(=O)CC[C@@H]12 : 0/8

----------
// T.I. (LD50/ED50) lookup, one value per entry
# System: Ehrlich ascites tumour, ELD hyperdiploid (46 chromosomes)
# Procedure details: Ehrlich ascites tumour test (LD50, ED50, therapeutic index)
# Assay type: in vivo, SPF NMRI mice
# Study conditions: Ehrlich ascites, mice, i.p.

Worked examples, 4 compounds total:
Compound	Target desc	T.I. (LD50/ED50)
O=P1(N(CCCl)CCCl)NCCCO1 (centres unmarked) [Cyclofosfamid, reference compound]	Ehrlich ascites tumour, ELD hyperdiploid (46 chromosomes)	7.6
CS(=O)(=O)OCCCCOS(C)(=O)=O [Busulfan, reference compound]	Ehrlich ascites tumour, ELD hyperdiploid (46 chromosomes)	1.3
C[C@]12CC[C@H](OC(=O)N(CCCl)N=O)CC1=CC[C@@H]1[C@@H]2CC[C@]2(C)C(=O)CC[C@@H]12	Ehrlich ascites tumour, ELD hyperdiploid (46 chromosomes)	> 102
C1CN1c1nc(N2CC2)nc(N2CC2)n1 [Triethylene-melamine, reference compound]	Ehrlich ascites tumour, ELD hyperdiploid (46 chromosomes)	2.6

Attention now turns to another entry.
For reference, reported T.I. (LD50/ED50) for S=P(N1CC1)(N1CC1)N1CC1 [Triethylene-thiophosphoramide, reference compound] stands at 1.5

----------
# Procedure details: Ehrlich ascites tumour test (LD50, ED50, therapeutic index)
# Format: in vivo, SPF NMRI mice
# Study conditions: mouse, in vivo, ip; one injection i.p., mice; dose causing 50 percent lethality
Values of LD50 strictly less than 20 mg/kg map to rule met, and values of at least 20 mg/kg map to rule not met.

The following compounds have reported results that may help.
Compound	Assigned class
O=P1(N(CCCl)CCCl)NCCCO1 (stereo not drawn) [Cyclofosfamid, reference compound]	rule not met
S=P(N1CC1)(N1CC1)N1CC1 [Triethylene-thiophosphoramide, reference compound]	rule not met
O=C(O)CCCc1ccc(N(CCCl)CCCl)cc1 [Chlorambucil, reference compound]	rule not met
CS(=O)(=O)OCCCCOS(C)(=O)=O [Busulfan, reference compound]	rule not met
C1CN1c1nc(N2CC2)nc(N2CC2)n1 [Triethylene-melamine, reference compound]	rule met

(Q) Given C[C@]12CC[C@H](OC(=O)N(CCCl)N=O)CC1=CC[C@@H]1[C@@H]2CC[C@]2(C)C(=O)CC[C@@H]12 , is recorded LD50 strictly lower than 20 mg/kg?
(A) rule not met

----------
Entries and their LD50 values follow.
# Procedure details: in vivo
# Parameters: species or system SPF Wistar rats
# Study conditions: rat, in vivo, ip; one injection i.p., rats; dose causing 50 percent lethality

Please review the following examples before continuing.
Sample smiles	LD50
C[C@]12CC[C@@H](OC(=O)N(CCCl)N=O)C[C@@H]1CC[C@@H]1[C@@H]2CC[C@]2(C)C(=O)CC[C@@H]12	> 1000 mg/kg
CC(=O)O[C@H]1CC[C@@]2(C)C(=CC[C@H]3[C@@H]4CC[C@H](OC(=O)N(CCCl)N=O)[C@@]4(C)CC[C@@H]32)C1	> 250 mg/kg
C[C@]12CC[C@H](OC(=O)N(CCCCl)N=O)CC1=CC[C@@H]1[C@@H]2CC[C@]2(C)C(=O)CC[C@@H]12	> 1000 mg/kg
C[C@]12CCC(=O)C[C@@H]1CC[C@@H]1[C@@H]2CC[C@]2(C)[C@@H](OC(=O)N(CCCl)N=O)CC[C@@H]12	> 1000 mg/kg
C[C@]12CC[C@@H]3c4ccc(OC(=O)N(CCCl)N=O)cc4CC[C@H]3[C@@H]1CC[C@@H]2O	> 1000 mg/kg

Shifting focus to the molecule that follows.
get_value(item= C[C@]12CC[C@@H]3c4ccc(OC(=O)N(CCCl)N=O)cc4CC[C@H]3[C@@H]1CCC2=O , readout=LD50) returns > 1000 mg/kg

----------
# Tested on: Walker carcinosarcoma 256
# Procedure details: Walker carcinosarcoma 256 test
# Format: in vivo, Sprague Dawley rats
# Study conditions: 5×500 mg/kg i.p.; died/used animals
Readout name: Lethality

Please review the entries below; each comes with its answer.
Compound	Readout name	Result
CCN(N=O)C(=O)O[C@H]1CC[C@@]2(C)C(=CC[C@@H]3[C@@H]2CC[C@]2(C)C(=O)CC[C@@H]32)C1 [reference compound]	Lethality	1/8
CC(=O)[C@H]1CC[C@H]2[C@@H]3CC=C4C[C@@H](OC(=O)N(CCCl)N=O)CC[C@]4(C)[C@H]3CC[C@]12C	Lethality	0/8
CN(CCCl)C(=O)O[C@H]1CC[C@@]2(C)C(=CC[C@@H]3[C@@H]2CC[C@]2(C)C(=O)CC[C@@H]32)C1 [reference compound]	Lethality	0/8
CC(C)CCC[C@@H](C)[C@H]1CC[C@H]2[C@@H]3CC=C4C[C@@H](OC(=O)N(CCCl)N=O)CC[C@]4(C)[C@H]3CC[C@]12C	Lethality	0/8

Data point: C[C@]12CC[C@H](OC(=O)N(CCCCl)N=O)CC1=CC[C@@H]1[C@@H]2CC[C@]2(C)C(=O)CC[C@@H]12 ; Lethality = 0/8

----------
# Procedure details: in vivo
# Parameters: species or system SPF Wistar rats
# Study conditions: rat, in vivo, ip; one injection i.p., rats; dose causing 50 percent lethality
Listed here: items and their measured LD50.

Compound	LD50
CC(=O)O[C@H]1CC[C@H]2[C@@H]3CCc4cc(OC(=O)N(CCCl)N=O)ccc4[C@H]3CC[C@]12C	> 1000 mg/kg
C[C@]12CC[C@H](OC(=O)N(CCBr)N=O)CC1=CC[C@@H]1[C@@H]2CC[C@]2(C)C(=O)CC[C@@H]12	> 1000 mg/kg
C[C@]12CC[C@H]3[C@@H](CCC4=CC(=O)CC[C@@]43C)[C@@H]1CC[C@@H]2OC(=O)N(CCCl)N=O	> 1000 mg/kg
CC(C)CCC[C@@H](C)[C@H]1CC[C@H]2[C@@H]3CC=C4C[C@@H](OC(=O)N(CCCl)N=O)CC[C@]4(C)[C@H]3CC[C@]12C	> 1000 mg/kg
C[C@]12CC[C@@H](OC(=O)N(CCCl)N=O)C[C@@H]1CC[C@@H]1[C@@H]2CC[C@]2(C)[C@@H](OC(=O)N(CCCl)N=O)CC[C@@H]12	> 1000 mg/kg
CC(=O)Oc1ccc2c(c1)CC[C@@H]1[C@@H]2CC[C@]2(C)[C@@H](OC(=O)N(CCCl)N=O)CC[C@@H]12	> 1000 mg/kg

Per the record, C[C@]12CC[C@@H]3c4ccc(OC(=O)c5ccccc5)cc4CC[C@H]3[C@@H]1CC[C@@H]2OC(=O)N(CCCl)N=O has LD50 of > 1000 mg/kg

So, CC(=O)[C@H]1CC[C@H]2[C@@H]3CC=C4C[C@@H](OC(=O)N(CCCl)N=O)CC[C@]4(C)[C@H]3CC[C@]12C ? Its LD50 was > 1000 mg/kg

Form field LD50, entry C[C@]12CC[C@H]3[C@@H](CCC4=CC(=O)CC[C@@H]43)[C@@H]1CC[C@@H]2OC(=O)N(CCCl)N=O : 150 mg/kg

Recorded result, C[C@]12CC[C@H](OC(=O)N(CCCl)N=O)C[C@@H]1CC[C@@H]1[C@@H]2CC[C@]2(C)C(=O)CC[C@@H]12 , LD50: > 1000 mg/kg

Lookup result for C[C@]12CC[C@H]3[C@@H](CC=C4C[C@@H](OC(=O)N(CCCl)N=O)CC[C@@]43C)[C@@H]1CC[C@@H]2OC(=O)N(CCCl)N=O ; measured LD50: > 250 mg/kg

Data point: CC(Cl)CN(N=O)C(=O)O[C@H]1CC[C@@]2(C)C(=CC[C@@H]3[C@@H]2CC[C@]2(C)C(=O)CC[C@@H]32)C1 (stereo partly drawn) ; LD50 = > 1000 mg/kg

Form field LD50, entry COc1ccc2c(c1)CC[C@@H]1[C@@H]2CC[C@]2(C)[C@@H](OC(=O)N(CCCl)N=O)CC[C@@H]12 : > 1000 mg/kg

Sample C[C@]12CC[C@H](OC(=O)N(CCCl)N=O)CC1=CC[C@@H]1[C@@H]2CC[C@]2(C)C(=O)CC[C@@H]12 ; LD50 observed: > 1000 mg/kg

Recorded result, CC(=O)O[C@H]1CC[C@H]2[C@@H]3CC=C4C[C@@H](OC(=O)N(CCCl)N=O)CC[C@]4(C)[C@H]3CC[C@]12C , LD50: > 250 mg/kg
